meta.source: patent US9447066B2

assay: Quantitative Solubility Assessment; assay type: physicochemical; settings: pH 6.8 phosphate buffer (0.05 M) and water, thermodynamic from solid; neutral to basic environment
observable: solubility at 24 h

Query block: So what does the record say about solubility at 24 h for CC(C)(C)c1cc2c(cc1Cl)C=C(C(=O)[O-])[C@@H](C(F)(F)F)O2.[K+] [potassium salt] ?
Result block: > 120 mg/mL

* * *

experiment: In vivo pharmacokinetic study in Beagle dogs; conditions: dog, plasma; male Beagle dogs, single oral dose 5 mg/kg, gelatin capsule; read-out: Cmax
For each entry below, report its Cmax value.
Number in ng/mL, nothing else.

Query block: Using the record for CC(C)(C)c1cc2c(cc1Cl)C=C(C(=O)O)[C@@H](C(F)(F)F)O2 , report its Cmax.
Result block: 19700

Query block: # Cmax lookup, item CC(C)(C)c1cc2c(cc1Cl)C=C(C(=O)[O-])[C@@H](C(F)(F)F)O2.[K+] [potassium salt]
Result block: 28200
